The reported measurements were obtained from patent US12065471B2.

- Test system: CD8+ T cells
- experimental details: In vitro immunogenicity: T-cell priming with aAPCs loaded with peptide/MHC and anti-CD28, pMHC multimer readout
- Assay type: cell-based, human
- condition: Table 10a, pMHC multimer readout after T-cell priming
measured attribute: Wells positive [%]

The cases that follow already have their Wells positive [%] on record.
511 (AEAVLKTLQEL; listed as Homo sapiens) [compound 511] ... + (<20% = +)
474 (AEEEIMKKI; listed as Homo sapiens) [compound 474] ... + (<20% = +)
516 (DEYLIPQQGF; listed as Homo sapiens) [compound 516] ... + (<20% = +)
513 (AEKDGKLTDY; listed as Homo sapiens) [compound 513] ... + (<20% = +)
509 (AESEDLAVHLY; listed as Homo sapiens) [compound 509] ... + (<20% = +)

What value of measured Wells positive [%] is listed for 460 (SEFMQVIF; listed as Homo sapiens) [compound 460] ?
+ (<20% = +)

Query 488 (SENPETITY; listed as Homo sapiens) [compound 488] next
++ (20%-49% = ++)

Query 510 (SEDLAVHLY; listed as Homo sapiens) [compound 510] next
++++ (>=70% = ++++)

* * *

- target: HLA-B*44:05 (Homo sapiens, UniProt P01889, A223V/A65T/A93T/A95T/D201E/D98Y/E176V/E187L/E204Q/E69K/G107R/H137Y/K202T/L105A/L119I/N104T/N87E/Q56L/Q94N/R106L/R155S/R180D/S101N/S121R/S35A/S48T/T118I/V36M/W191S/Y91S)
- experimental details: MHC binding assay (UV-ligand exchange, β2m ELISA, peptide exchange yield)
- condition: binding to HLA-B*44:05
measured attribute: Peptide exchange (MHC class I binding score, peptide exchange yield)

431 (QELLDFTNW; listed as Homo sapiens) [compound 431] ... ++++ (>75% = ++++)
91 (EESLLSSWDF; listed as Homo sapiens) [compound 91] ... +++ (>50 = +++)
77 (QETLAESTW; listed as Homo sapiens) [compound 77] ... +++ (>50 = +++)
209 (AEGEPPPAL; listed as Homo sapiens) [compound 209] ... +++ (>50 = +++)
294 (EEWEWIQKL; listed as Homo sapiens) [compound 294] ... ++++ (>75% = ++++)

What value of measured Peptide exchange (MHC class I binding score, peptide exchange yield) is listed for 271 (REDLVGPEV; listed as Homo sapiens) [compound 271] ?
+++ (>50 = +++)

Query 441 (QEVAQVASAIL; listed as Homo sapiens) [compound 441] next
++++ (>75% = ++++)

Query 246 (HEHGLFNLY; listed as Homo sapiens) [compound 246] next
+++ (>50 = +++)

Query 293 (QEDEQLLLRF; listed as Homo sapiens) [compound 293] next
+++ (>50 = +++)

* * *

- target: HLA-B*44:05 (Homo sapiens, UniProt P01889, A223V/A65T/A93T/A95T/D201E/D98Y/E176V/E187L/E204Q/E69K/G107R/H137Y/K202T/L105A/L119I/N104T/N87E/Q56L/Q94N/R106L/R155S/R180D/S101N/S121R/S35A/S48T/T118I/V36M/W191S/Y91S)
- experimental details: MHC binding assay (UV-ligand exchange, β2m ELISA, peptide exchange yield)
- condition: binding to HLA-B*44:05
measured attribute: Peptide exchange (MHC class I binding score, peptide exchange yield)

The cases that follow already have their Peptide exchange (MHC class I binding score, peptide exchange yield) on record.
417 (EESFRCLPEW; listed as Homo sapiens) [compound 417] ... ++++ (>75% = ++++)
223 (SEVEGLAFV; listed as Homo sapiens) [compound 223] ... +++ (>50 = +++)
304 (RELGFTEATGW; listed as Homo sapiens) [compound 304] ... ++++ (>75% = ++++)
37 (IEQGRVVLW; listed as Homo sapiens) [compound 37] ... ++++ (>75% = ++++)

What value of measured Peptide exchange (MHC class I binding score, peptide exchange yield) is listed for 160 (AEIATTGQLY; listed as Homo sapiens) [compound 160] ?
+++ (>50 = +++)

Query 127 (RYFDENIQKFIW; listed as Homo sapiens) [compound 127] next
+++ (>50 = +++)

Query 263 (AEQLRGFNA; listed as Homo sapiens) [compound 263] next
+++ (>50 = +++)

Query 448 (ALSPVPSHW; listed as Homo sapiens) [compound 448] next
+++ (>50 = +++)

* * *

- target: HLA-B*44:05 (Homo sapiens, UniProt P01889, A223V/A65T/A93T/A95T/D201E/D98Y/E176V/E187L/E204Q/E69K/G107R/H137Y/K202T/L105A/L119I/N104T/N87E/Q56L/Q94N/R106L/R155S/R180D/S101N/S121R/S35A/S48T/T118I/V36M/W191S/Y91S)
- experimental details: MHC binding assay (UV-ligand exchange, β2m ELISA, peptide exchange yield)
- condition: binding to HLA-B*44:05
- From the text: Candidate peptides for T cell-based therapies according to the present invention were further tested for their MHC binding capacity (affinity). The individual peptide-MHC complexes were produced by UV-ligand exchange, where a UV-sensitive peptide is cleaved upon UV-irradiation and exchanged with the peptide of interest as analyzed. Only peptide candidates that can effectively bind and stabilize the peptide-receptive MHC molecules prevent dissociation of the MHC complexes. […]
measured attribute: Peptide exchange (MHC class I binding score, peptide exchange yield)

339 (NEVKEIKGY; listed as Homo sapiens) [compound 339] ... +++ (>50 = +++)
245 (MEFQGPMPAGM; listed as Homo sapiens) [compound 245] ... +++ (>50 = +++)
317 (TEFQQIINL; listed as Homo sapiens) [compound 317] ... ++++ (>75% = ++++)
342 (SENKKWVEF; listed as Homo sapiens) [compound 342] ... ++ (>20% = ++)
366 (EECGKAFKKF; listed as Homo sapiens) [compound 366] ... +++ (>50 = +++)
112 (AEIEADRSYQH; listed as Homo sapiens) [compound 112] ... +++ (>50 = +++)

What value of measured Peptide exchange (MHC class I binding score, peptide exchange yield) is listed for 188 (AEFVPKADLL; listed as Homo sapiens) [compound 188] ?
+++ (>50 = +++)

Query 354 (TEIMEKTTL; listed as Homo sapiens) [compound 354] next
+++ (>50 = +++)

Query 305 (AEKNRRDAETW; listed as Homo sapiens) [compound 305] next
++++ (>75% = ++++)

Query 132 (AESFTSGRHYW; listed as Homo sapiens) [compound 132] next
++++ (>75% = ++++)

Query 240 (MELQVSSGF; listed as Homo sapiens) [compound 240] next
+++ (>50 = +++)

Query 89 (KEFYPVKEF; listed as Homo sapiens) [compound 89] next
++ (>20% = ++)

Query 130 (REYQEVMNSKL; listed as Homo sapiens) [compound 130] next
+++ (>50 = +++)

Query 375 (HEATFGEKRF; listed as Homo sapiens) [compound 375] next
+++ (>50 = +++)

Query 238 (VEDDNYKLSL; listed as Homo sapiens) [compound 238] next
+++ (>50 = +++)

Query 126 (SEASQSPQY; listed as Homo sapiens) [compound 126] next
+++ (>50 = +++)

Query 152 (HENLIEDF; listed as Homo sapiens) [compound 152] next
+++ (>50 = +++)

Query 68 (NEIDIHSIYF; listed as Homo sapiens) [compound 68] next
++++ (>75% = ++++)

Query 345 (AEYQAAILHL; listed as Homo sapiens) [compound 345] next
+++ (>50 = +++)

Query 65 (SESMVESKF; listed as Homo sapiens) [compound 65] next
++ (>20% = ++)

* * *

- target: HLA-B*44:05 (Homo sapiens, UniProt P01889, A223V/A65T/A93T/A95T/D201E/D98Y/E176V/E187L/E204Q/E69K/G107R/H137Y/K202T/L105A/L119I/N104T/N87E/Q56L/Q94N/R106L/R155S/R180D/S101N/S121R/S35A/S48T/T118I/V36M/W191S/Y91S)
- experimental details: MHC binding assay (UV-ligand exchange, β2m ELISA, peptide exchange yield)
- condition: binding to HLA-B*44:05
measured attribute: Peptide exchange (MHC class I binding score, peptide exchange yield)

The cases that follow already have their Peptide exchange (MHC class I binding score, peptide exchange yield) on record.
86 (QTLKAMVQAW; listed as Homo sapiens) [compound 86] ... +++ (>50 = +++)
419 (SELSLLSLY; listed as Homo sapiens) [compound 419] ... +++ (>50 = +++)
196 (TELEVKIRDW; listed as Homo sapiens) [compound 196] ... ++++ (>75% = ++++)
221 (KEAFGPQAL; listed as Homo sapiens) [compound 221] ... ++++ (>75% = ++++)

# evaluate next
What value of measured Peptide exchange (MHC class I binding score, peptide exchange yield) is listed for 282 (KEFGIGDLVW; listed as Homo sapiens) [compound 282] ?
++++ (>75% = ++++)
